From: BindingDB's records for patent US20240150287

Biological target: Mucosal addressin cell adhesion molecule 1/Integrin alpha-4/beta-7 (Homo sapiens, UniProt P13612+P26010+Q13477)
Sequence (P13612 whole entry): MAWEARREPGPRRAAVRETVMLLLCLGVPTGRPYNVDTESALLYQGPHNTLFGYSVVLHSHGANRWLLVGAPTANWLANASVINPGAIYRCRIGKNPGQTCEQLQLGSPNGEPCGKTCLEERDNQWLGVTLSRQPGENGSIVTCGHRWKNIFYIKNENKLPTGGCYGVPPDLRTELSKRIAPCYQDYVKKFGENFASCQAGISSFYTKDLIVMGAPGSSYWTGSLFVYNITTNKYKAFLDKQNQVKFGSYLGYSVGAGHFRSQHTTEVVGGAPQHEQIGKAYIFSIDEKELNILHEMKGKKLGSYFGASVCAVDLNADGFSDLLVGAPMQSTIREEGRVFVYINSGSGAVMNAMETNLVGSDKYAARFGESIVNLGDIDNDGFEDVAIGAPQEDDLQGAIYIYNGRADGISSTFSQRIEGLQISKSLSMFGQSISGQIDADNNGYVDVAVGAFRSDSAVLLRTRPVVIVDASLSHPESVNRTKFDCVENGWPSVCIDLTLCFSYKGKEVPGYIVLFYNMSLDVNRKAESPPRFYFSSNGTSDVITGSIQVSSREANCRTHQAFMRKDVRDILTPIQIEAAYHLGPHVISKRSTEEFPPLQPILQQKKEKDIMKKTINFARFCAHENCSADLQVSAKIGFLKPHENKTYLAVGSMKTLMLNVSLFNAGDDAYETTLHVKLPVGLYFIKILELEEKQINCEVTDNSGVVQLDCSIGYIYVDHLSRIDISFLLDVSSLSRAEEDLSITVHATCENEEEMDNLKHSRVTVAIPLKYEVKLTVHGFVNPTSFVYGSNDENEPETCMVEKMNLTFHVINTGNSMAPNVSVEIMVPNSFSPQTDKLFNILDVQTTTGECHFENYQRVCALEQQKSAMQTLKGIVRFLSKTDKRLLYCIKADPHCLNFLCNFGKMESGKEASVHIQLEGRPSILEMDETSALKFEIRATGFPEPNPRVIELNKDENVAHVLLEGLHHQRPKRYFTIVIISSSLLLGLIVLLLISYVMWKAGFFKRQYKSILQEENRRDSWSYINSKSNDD
Sequence (P26010 whole entry): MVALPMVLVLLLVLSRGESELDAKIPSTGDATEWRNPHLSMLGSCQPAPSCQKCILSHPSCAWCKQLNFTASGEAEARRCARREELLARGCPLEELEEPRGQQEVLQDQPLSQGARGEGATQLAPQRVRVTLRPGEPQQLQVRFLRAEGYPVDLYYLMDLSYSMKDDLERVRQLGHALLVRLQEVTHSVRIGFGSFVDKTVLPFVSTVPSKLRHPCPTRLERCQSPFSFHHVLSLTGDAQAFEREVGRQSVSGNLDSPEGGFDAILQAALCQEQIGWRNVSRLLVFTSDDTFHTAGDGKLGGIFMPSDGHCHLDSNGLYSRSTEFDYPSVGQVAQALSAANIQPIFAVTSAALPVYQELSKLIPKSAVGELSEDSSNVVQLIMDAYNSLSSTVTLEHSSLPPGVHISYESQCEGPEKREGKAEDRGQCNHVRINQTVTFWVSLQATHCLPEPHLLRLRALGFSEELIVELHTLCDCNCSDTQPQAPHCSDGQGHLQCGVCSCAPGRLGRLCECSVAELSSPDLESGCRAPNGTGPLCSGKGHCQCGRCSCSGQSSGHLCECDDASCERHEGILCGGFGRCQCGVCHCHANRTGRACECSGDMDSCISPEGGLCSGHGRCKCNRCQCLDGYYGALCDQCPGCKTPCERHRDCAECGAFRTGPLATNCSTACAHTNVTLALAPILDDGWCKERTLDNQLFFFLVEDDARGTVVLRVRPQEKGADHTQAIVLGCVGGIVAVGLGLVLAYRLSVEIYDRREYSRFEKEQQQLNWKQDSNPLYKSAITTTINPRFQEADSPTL
Sequence (Q13477 whole entry): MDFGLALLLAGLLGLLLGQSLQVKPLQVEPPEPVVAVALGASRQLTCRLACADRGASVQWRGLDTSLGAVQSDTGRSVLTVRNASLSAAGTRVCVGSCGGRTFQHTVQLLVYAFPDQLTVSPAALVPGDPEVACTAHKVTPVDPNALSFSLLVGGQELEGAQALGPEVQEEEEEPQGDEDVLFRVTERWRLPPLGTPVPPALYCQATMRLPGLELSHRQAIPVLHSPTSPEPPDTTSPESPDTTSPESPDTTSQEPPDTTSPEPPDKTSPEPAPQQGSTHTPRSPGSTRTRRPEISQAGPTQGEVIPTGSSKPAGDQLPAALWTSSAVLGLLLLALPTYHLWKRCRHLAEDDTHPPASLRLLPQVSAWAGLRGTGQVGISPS
Assay: BINDING INHIBITION ACTIVITY EVALUATION TEST
MEASURED_QUANTITY: IC50 (nM)
Just the number please, in nM, no unit attached.

Q: Please give the measured IC50 for this molecule: COC(=O)[C@H](Cc1ccc(N2C(=O)C3(CC3)c3cc(F)c(Cl)cc32)cc1)NC(c1ccccc1)(c1ccccc1)c1ccccc1
Ans: 17.6

Q: Note, next up: COC(=O)[C@H](Cc1ccc(-n2c(=O)n(C)c3ccc(F)c(F)c32)cc1)NC(c1ccccc1)(c1ccccc1)c1ccccc1
Ans: 2.7

Q: COC(=O)[C@H](Cc1ccc(N2C(=O)C3(CC3)c3ccc(F)c(F)c32)cc1)NC(c1ccccc1)(c1ccccc1)c1ccccc1 , same question.
Ans: 5.62

Q: Also COC(=O)[C@H](Cc1ccc(N2C(=O)C3(CC3)c3cc(N(C)C)ccc32)cc1)NC(c1ccccc1)(c1ccccc1)c1ccccc1 , if possible.
Ans: 4.15

----------
molecular target: Mucosal addressin cell adhesion molecule 1/Integrin alpha-4/beta-7 (Homo sapiens, UniProt P13612+P26010+Q13477); assay: BINDING INHIBITION ACTIVITY EVALUATION TEST
MEASURED_QUANTITY: IC50 (nM)
Form entry: value (nM) — number only.

Q: Recorded IC50 of COC(=O)[C@H](Cc1ccc(-n2c(=S)n(C)c3cccc(Cl)c32)cc1)NC(c1ccccc1)(c1ccccc1)c1ccccc1 [US20240150287, Example 26] , please.
Ans: 160

Q: Let us now turn to COC(=O)[C@H](Cc1ccc(-n2c(=O)n(C)c3cccc(F)c32)cc1)NC(c1ccccc1)(c1ccccc1)c1ccccc1 [US20240150287, Example 30]
Ans: 1.83

Q: // same read-out, input: COC(=O)[C@H](Cc1ccc(N2C(=O)C3(CC3)c3ccccc32)cc1)NC(c1ccccc1)(c1ccccc1)c1ccccc1 [US20240150287, Example 6]
Ans: 5.81

----------
For each of the compounds below, state its IC50.
Target: Mucosal addressin cell adhesion molecule 1/Integrin alpha-4/beta-7 (Homo sapiens, UniProt P13612+P26010+Q13477)
Sequence (P13612 whole entry): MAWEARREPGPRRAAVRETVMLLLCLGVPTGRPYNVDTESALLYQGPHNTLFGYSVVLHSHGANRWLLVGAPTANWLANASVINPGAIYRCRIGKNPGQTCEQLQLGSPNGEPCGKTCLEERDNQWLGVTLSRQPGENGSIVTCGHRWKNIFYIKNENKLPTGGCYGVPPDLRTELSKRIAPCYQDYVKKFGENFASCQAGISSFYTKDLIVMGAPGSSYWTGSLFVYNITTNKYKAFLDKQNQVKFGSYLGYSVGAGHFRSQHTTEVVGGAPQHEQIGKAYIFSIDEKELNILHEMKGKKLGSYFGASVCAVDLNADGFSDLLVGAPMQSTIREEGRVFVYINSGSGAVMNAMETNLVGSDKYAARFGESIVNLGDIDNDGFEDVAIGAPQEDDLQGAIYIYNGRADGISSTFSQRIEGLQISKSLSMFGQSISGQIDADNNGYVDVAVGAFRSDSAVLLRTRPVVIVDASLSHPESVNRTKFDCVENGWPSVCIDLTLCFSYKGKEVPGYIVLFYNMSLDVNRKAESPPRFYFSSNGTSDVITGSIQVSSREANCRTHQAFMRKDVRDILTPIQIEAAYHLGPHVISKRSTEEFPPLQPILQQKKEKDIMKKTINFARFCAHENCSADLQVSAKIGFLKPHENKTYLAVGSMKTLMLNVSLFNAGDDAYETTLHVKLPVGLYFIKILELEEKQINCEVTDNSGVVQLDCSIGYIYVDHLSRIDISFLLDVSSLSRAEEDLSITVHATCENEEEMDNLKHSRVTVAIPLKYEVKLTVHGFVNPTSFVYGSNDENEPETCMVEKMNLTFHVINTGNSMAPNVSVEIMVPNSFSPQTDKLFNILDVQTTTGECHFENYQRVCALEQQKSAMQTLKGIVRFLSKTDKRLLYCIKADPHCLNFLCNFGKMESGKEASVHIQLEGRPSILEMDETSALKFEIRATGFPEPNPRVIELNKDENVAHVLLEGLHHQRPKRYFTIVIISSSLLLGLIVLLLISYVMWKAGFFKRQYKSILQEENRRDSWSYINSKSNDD
Sequence (P26010 whole entry): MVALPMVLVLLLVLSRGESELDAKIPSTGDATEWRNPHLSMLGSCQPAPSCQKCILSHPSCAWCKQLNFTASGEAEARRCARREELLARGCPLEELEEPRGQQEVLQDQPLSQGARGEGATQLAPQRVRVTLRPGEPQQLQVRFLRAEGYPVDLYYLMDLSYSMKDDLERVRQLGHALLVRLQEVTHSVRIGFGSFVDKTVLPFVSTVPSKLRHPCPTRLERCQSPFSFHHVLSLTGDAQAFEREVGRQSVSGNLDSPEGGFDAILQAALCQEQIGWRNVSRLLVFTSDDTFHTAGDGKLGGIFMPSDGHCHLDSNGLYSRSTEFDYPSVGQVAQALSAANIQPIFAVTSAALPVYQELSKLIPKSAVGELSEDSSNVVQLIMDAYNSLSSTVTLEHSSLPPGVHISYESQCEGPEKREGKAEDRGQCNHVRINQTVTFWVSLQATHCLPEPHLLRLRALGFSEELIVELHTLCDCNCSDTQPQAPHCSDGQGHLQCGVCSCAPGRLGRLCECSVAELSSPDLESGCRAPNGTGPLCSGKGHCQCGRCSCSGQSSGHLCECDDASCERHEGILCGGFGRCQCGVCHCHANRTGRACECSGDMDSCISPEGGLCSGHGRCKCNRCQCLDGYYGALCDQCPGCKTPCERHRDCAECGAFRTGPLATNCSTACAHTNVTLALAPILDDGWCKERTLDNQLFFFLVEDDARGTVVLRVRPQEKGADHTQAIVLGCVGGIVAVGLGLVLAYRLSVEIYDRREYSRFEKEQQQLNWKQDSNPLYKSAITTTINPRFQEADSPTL
Sequence (Q13477 whole entry): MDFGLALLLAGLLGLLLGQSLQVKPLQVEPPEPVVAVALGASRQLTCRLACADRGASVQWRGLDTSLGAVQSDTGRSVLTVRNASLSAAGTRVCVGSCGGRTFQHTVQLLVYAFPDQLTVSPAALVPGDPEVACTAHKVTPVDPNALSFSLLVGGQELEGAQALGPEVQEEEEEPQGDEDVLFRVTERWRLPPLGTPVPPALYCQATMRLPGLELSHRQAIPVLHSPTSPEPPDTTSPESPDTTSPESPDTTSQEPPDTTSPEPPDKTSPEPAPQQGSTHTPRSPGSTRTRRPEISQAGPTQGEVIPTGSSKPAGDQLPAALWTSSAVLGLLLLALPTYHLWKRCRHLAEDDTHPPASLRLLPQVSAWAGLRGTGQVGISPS
Assay: BINDING INHIBITION ACTIVITY EVALUATION TEST
# output: number + unit

Q: Fill blank: measured IC50 of the compound COC(=O)[C@H](Cc1ccc(-n2c(=O)n(C)c3cccc(Cl)c32)cc1)NC(=O)c1c(Cl)cc(N2CCOCC2)cc1Cl [US20240150287, Example 39] is ____.
Ans: 3.65 nM

Q: COC(=O)[C@H](Cc1ccc(-n2c(=O)n(C)c3ccc(N(C)C)cc32)cc1)NC(c1ccccc1)(c1ccccc1)c1ccccc1 [US20240150287, Example 36] , same question.
Ans: 1.51 nM

Q: What do you get for COC(=O)[C@H](Cc1ccc(N2C(=O)C(C)(C)c3cccc(Cl)c32)cc1)NC(c1ccccc1)(c1ccccc1)c1ccccc1 [US20240150287, Example 10] ?
Ans: 38.8 nM

Q: What would you report for COC(=O)[C@H](Cc1ccc(N2C(=O)C3(CC3)c3cccc(Cl)c32)cc1)NC(=O)c1c(Cl)cc(Cl)cc1Cl [US20240150287, Example 17] ?
Ans: 64.2 nM

Q: Same for COC(=O)[C@H](Cc1ccc(-n2c(=O)n(C)c3cc(F)cc(F)c32)cc1)NC(c1ccccc1)(c1ccccc1)c1ccccc1 [US20240150287, Example 31]
Ans: 5.34 nM

Q: Another: COC(=O)[C@H](Cc1ccc(-n2c(=O)n(C)c3cccc(OC)c32)cc1)NC(c1ccccc1)(c1ccccc1)c1ccccc1 [US20240150287, Example 35]
Ans: 0.45 nM
